Test: Solubility (Test F)
Format: physicochemical
Details: arithmetic mean if run multiple times
measuredMetric: solubility (µM)

Some compounds with recorded solubility:
{"columns": ["compound", "readoutUnit", "solubility"],
 "data": [
  ["COc1cc(F)c(O[C@H]2C[C@H](C(=O)O)C2)cc1C(=O)NC1[C@H]2CC[C@H](C2)[C@@H]1C(=O)Nc1cccc(S(=O)(=O)C(F)(F)F)c1 (stereo partly shown)", "µM", 760],
  ["COc1cc(Cl)c(O[C@H]2CC[C@@](C)(C(=O)O)CC2)cc1C(=O)N[C@@H]1[C@H]2CC[C@H](C2)[C@@H]1C(=O)NCC(C)(C)C", "µM", 930],
  ["COc1cc(F)c(O[C@H]2CC[C@@](C)(C(=O)O)CC2)cc1C(=O)N[C@@H]1CCC[C@]1(F)C(=O)Nc1cccc(S(=O)(=O)C(F)(F)F)c1", "µM", 430],
  ["COc1cc(F)c(O[C@H]2CC[C@@H](C(=O)O)CC2)cc1C(=O)N[C@@H]1[C@H]2CC[C@H](C2)[C@@H]1C(=O)Nc1ccc(C)c(C(F)(F)F)c1", "µM", 120],
  ["COc1cc(C#N)c(-c2ccc(OCC(=O)O)cc2)cc1C(=O)N[C@@H]1[C@H]2CC[C@H](C2)[C@@H]1C(=O)Nc1cccc(S(=O)(=O)C(F)(F)F)c1", "µM", 1000]
]}

a: COc1cc(F)c(Oc2ccc(C(=O)O)cc2)cc1C(=O)N[C@H]1[C@@H](C(=O)Nc2cccc(S(=O)(=O)C(F)(F)F)c2)[C@@H]2C=C[C@H]1C2 (racemic)
b: COc1cc(C#N)c(O[C@H]2CC[C@@](C)(C(=O)O)CC2)cc1C(=O)N[C@@H]1[C@H]2CC[C@H](C2)[C@@H]1C(=O)NC(C)(C)C
Min solubility? a | b Pick one and reply with its label. a

A: COc1cc(F)c(O[C@H]2CC[C@@H](C(=O)O)CC2)cc1C(=O)N[C@@H]1[C@H]2CC[C@H](C2)[C@@H]1C(=O)Nc1cccc(OC(F)(F)F)c1
B: COc1cc(F)c(-c2ccc(C(N)=O)cc2)cc1C(=O)N[C@@H]1[C@H]2CC[C@H](C2)[C@@H]1C(=O)Nc1cccc(S(=O)(=O)C(F)(F)F)c1
Pick one, A or B : lowest reported solubility. Kindly state the label of the option you pick. B
(B: 130 µM, A: 980 µM)

====

Assay: Rat Hepatocyte Stability (Test E)
Type: in vitro ADME
Conditions: rat, hepatocytes, geometric mean if run multiple times
measuredMetric: hepatocyte CLint (µL/min/1e6 cells)

A selection of reference data follows.
{"columns": ["compound", "numericValue"],
 "data": [
  ["COc1cc(F)c(O[C@H]2CC[C@@H](C(=O)O)CC2)cc1C(=O)N[C@@H]1[C@H]2CC[C@H](C2)[C@@H]1C(=O)NC1CC(F)(F)C1", 110],
  ["COc1cc(F)c(-c2ccc(CCC(=O)O)cc2)cc1C(=O)N[C@H]1[C@@H](C(=O)Nc2cccc(S(=O)(=O)C(F)(F)F)c2)[C@@H]2C=C[C@H]1C2 (racemic)", 15],
  ["COc1cc(F)c(O[C@H]2CC[C@@H](C(N)=O)CC2)cc1C(=O)N[C@H]1[C@@H](C(=O)Nc2ccc(F)c(C(F)(F)F)c2)[C@@H]2C=C[C@H]1C2", 96]
]}

I: CC(C)Oc1cc(F)c(O[C@H]2CC[C@@](CO)(C(=O)O)CC2)cc1C(=O)N[C@@H]1[C@H]2CC[C@H](C2)[C@@H]1C(=O)NCC1(C)CCC1
II: COc1cc(F)c(O[C@H]2CC[C@@H](C(=O)O)CC2)cc1C(=O)N[C@@H]1[C@H]2CC[C@H](C2)[C@@H]1C(=O)NC1CCCCC1
III: COc1cc(F)c(O[C@H]2CC[C@@H](C(=O)O)CC2)cc1C(=O)N[C@@H]1[C@H]2CC[C@H](C2)[C@@H]1C(=O)Nc1ccc(F)c(S(F)(F)(F)(F)F)c1
Ascending by hepatocyte CLint, please. Thanks in advance for listing the labels in the requested order. III, I, II

a: COc1cc(C#N)c(O[C@H]2CC[C@@](C)(C(=O)O)CC2)cc1C(=O)N[C@@H]1[C@H]2CC[C@H](C2)[C@@H]1C(=O)N[C@H]1C[C@@H](C)C1
b: COc1cc(F)c(OCCCCC(=O)O)cc1C(=O)N[C@H]1[C@@H](C(=O)Nc2cccc(S(=O)(=O)C(F)(F)F)c2)[C@@H]2C=C[C@H]1C2 (racemic)
Parameter metric = hepatocyte CLint. Return the lower-valued option from a and b . Write down the label attached to your selection. a
(a: 18 µL/min/1e6 cells, b: 68 µL/min/1e6 cells)

P: COc1cc(F)c(-c2ccc(OCC(=O)O)cc2)cc1C(=O)N[C@@H]1[C@H]2CC[C@H](C2)[C@@H]1C(=O)Nc1cccc(S(=O)(=O)C(F)(F)F)c1
Q: COc1cc(F)c(O[C@H]2CC[C@@](C)(C(=O)O)CC2)cc1C(=O)Nc1cnccc1C(=O)NCC1(C)CCC1
Which value of hepatocyte CLint is numerically greater: that of P or that of Q ? Kindly state the label of the option you pick. Q

I: COc1cc(F)c(O[C@H]2CC[C@@H](C(=O)O)CC2)cc1C(=O)N[C@@H]1[C@H]2CC[C@H](C2)[C@@H]1C(=O)Nc1cc(Cl)cnn1
II: COc1ccc(O[C@H]2CC[C@@H](C(=O)O)CC2)cc1C(=O)N[C@@H]1[C@H]2CC[C@H](C2)[C@@H]1C(=O)Nc1cccc(S(=O)(=O)C(F)(F)F)c1
Min hepatocyte CLint? I | II Select an item and report its label. I
(I: 18 µL/min/1e6 cells, II: 29 µL/min/1e6 cells)

====

Experiment: Rat Hepatocyte Stability (Test E)
Format: in vitro ADME
Conditions: rat, hepatocytes, geometric mean if run multiple times
measuredMetric: hepatocyte CLint (µL/min/1e6 cells)

{"columns": ["molecule", "readoutUnit", "hepatocyte CLint"],
 "data": [
  ["COc1cc(F)c(-c2ccc(C(=O)O)c(O)c2)cc1C(=O)N[C@@H]1[C@H]2CC[C@H](C2)[C@@H]1C(=O)Nc1cccc(S(=O)(=O)C(F)(F)F)c1", "µL/min/1e6 cells", 12],
  ["COc1cc(C#N)c(O[C@H]2CC[C@@](C)(C(=O)O)CC2)cc1C(=O)NC1C2CCC(O2)C1C(=O)NCC1(C)CCC1 (single isomer, unassigned)", "µL/min/1e6 cells", 19],
  ["COc1cc(F)c(O[C@H]2CC[C@@](C)(C(=O)O)CC2)cc1C(=O)N[C@@H]1[C@H]2CC[C@H](C2)[C@@H]1C(=O)N[C@@H](C)C(C)(C)C", "µL/min/1e6 cells", 12],
  ["COc1cc(C#N)c(O[C@H]2CC[C@@](C)(C(=O)O)CC2)cc1C(=O)N[C@@H]1[C@H]2CC[C@H](C2)[C@@H]1C(=O)NC1(C2CC2)CC1", "µL/min/1e6 cells", 17]
]}

====

Reported EC50 values for the following compounds.
Target: UniProtKB Q9HBX9
Sequence (Q9HBX9 whole entry): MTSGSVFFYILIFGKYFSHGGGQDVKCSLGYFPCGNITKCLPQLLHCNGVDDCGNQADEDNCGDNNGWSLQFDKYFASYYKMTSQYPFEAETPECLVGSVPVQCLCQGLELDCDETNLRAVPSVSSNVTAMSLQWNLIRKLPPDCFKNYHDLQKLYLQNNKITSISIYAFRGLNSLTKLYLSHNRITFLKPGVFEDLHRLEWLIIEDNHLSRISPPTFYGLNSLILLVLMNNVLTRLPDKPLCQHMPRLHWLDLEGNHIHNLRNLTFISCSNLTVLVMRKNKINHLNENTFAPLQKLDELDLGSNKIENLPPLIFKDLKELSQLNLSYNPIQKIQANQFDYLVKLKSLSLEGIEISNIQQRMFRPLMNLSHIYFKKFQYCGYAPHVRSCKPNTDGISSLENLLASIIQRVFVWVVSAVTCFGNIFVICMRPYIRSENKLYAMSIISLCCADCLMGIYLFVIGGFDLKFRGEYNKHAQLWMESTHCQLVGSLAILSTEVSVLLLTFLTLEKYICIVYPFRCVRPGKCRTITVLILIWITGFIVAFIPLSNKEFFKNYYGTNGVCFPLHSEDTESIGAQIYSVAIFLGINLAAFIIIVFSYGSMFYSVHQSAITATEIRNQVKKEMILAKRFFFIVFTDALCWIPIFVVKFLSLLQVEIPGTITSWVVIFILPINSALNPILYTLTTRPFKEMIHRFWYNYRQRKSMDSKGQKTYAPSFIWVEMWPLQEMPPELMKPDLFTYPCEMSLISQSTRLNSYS
Experiment: RXFP1 Hu cAMP (Test A)
Format: cell-based
Parameters: expressed in transfected cells; host or cells: Jump-In T-REx CHO-K1 cells (ThermoFisher), induced with 10 ng/ml doxycycline for 24 h
Conditions: RXFP1 Hu cAMP; read-out: Test A EC50

Previously resolved entries follow.
{"columns": ["compound", "result"],
 "data": [
  ["COc1cc(F)c(OCC23CCC(C(=O)O)(CC2)CC3)cc1C(=O)N[C@@H]1[C@H]2CC[C@H](C2)[C@@H]1C(=O)Nc1cccc(S(=O)(=O)C(F)(F)F)c1", "> 40 µM"],
  ["COc1cc(F)c(O[C@H]2CC[C@@](C)(C(=O)O)CC2)cc1C(=O)N[C@H]1[C@@H]2CC[C@@H](C2)[C@H]1C(=O)Nc1ccc(F)c(S(F)(F)(F)(F)F)c1", "> 0.15 µM"]
]}

Param readout = EC50; param system = UniProtKB Q9HBX9; param query = COc1ccc(Cc2ccccc2C(=O)O)cc1C(=O)N[C@H]1[C@@H](C(=O)Nc2cccc(S(=O)(=O)C(F)(F)F)c2)[C@@H]2C=C[C@H]1C2 (racemic) ; response: value > 40 µM

And for `COCC1(CNC(=O)[C@H]2[C@@H]3CC[C@@H](C3)[C@H]2NC(=O)c2cc(O[C@H]3CC[C@@](C)(C(=O)O)CC3)c(C#N)cc2OC)CC1` ? > 5 µM

====

Target: UniProt:Q9HBX9
Assay: RXFP1 Hu cAMP (Test A)
Format: cell-based
Set-up: expressed in transfected cells; host or cells: Jump-In T-REx CHO-K1 cells (ThermoFisher), induced with 10 ng/ml doxycycline for 24 h
Conditions: RXFP1 Hu cAMP; read-out: Test A EC50
pEC50: −log10 of the molar value.
measuredMetric: pEC50

{"columns": ["compound", "pEC50"],
 "data": [
  ["COc1cc(F)c(O[C@H]2C[C@@H](C(=O)O)C2)cc1C(=O)NC1[C@H]2CC[C@H](C2)[C@@H]1C(=O)Nc1cccc(S(=O)(=O)C(F)(F)F)c1 (stereo partly drawn)", 6.92]
]}

I: COc1cc(C#N)c(O[C@H]2CC[C@@](C)(C(=O)O)CC2)cc1C(=O)Nc1cc(Cl)ccc1C(=O)NCC1(F)CCC1
II: COc1cc(F)c(O[C@H]2CC[C@@](C)(C(=O)O)CC2)cc1C(=O)N[C@@H]1[C@H]2CC[C@H](C2)[C@@H]1C(=O)N[C@H](C)C(C)C
From the items above, decide which of I and II has the lower pEC50 reading. In your reply, give the label of the chosen option. I
